Test system: Kochia (Kochia scoparia)
Experiment: Test A preemergence
Format: in vivo
Conditions: Bassia scoparia, pre-emergence, 240 h, 125 g ai/ha, preemergence; visual injury rating, 0 to 100 scale where 0 is no effect and 100 is complete control; approximately 10 d; read-out: Kochia plant response rating
Here, each record is paired with measured pest or weed control at 125 g/ha data.
Provide only the numeric value, understood in %.

{"columns": ["compound", "scale unit", "result value"],
 "data": [
  ["Cc1ccccc1NC(=O)[C@H]1C(=O)N(C)C[C@@H]1c1ccc(C(F)(F)F)cc1 [Compound 1239]", "%", 90],
  ["Cc1c(F)cccc1NC(=O)[C@H]1C(=O)N(C)C[C@@H]1c1ccc(F)cc1 [Compound 1235]", "%", 60],
  ["O=C(Nc1ccccc1F)[C@H]1C(=O)N(CC(F)F)C[C@@H]1c1cccc(C(F)(F)F)c1 [Compound 1295]", "%", 0]
]}

pest or weed control at 125 g/ha lookup needed for CN1C[C@H](c2ccccc2)[C@@H](C(=O)Nc2cccc(F)c2F)C1=O [Compound 1282] , thanks.
70

* * *

Test system: wheat (winter wheat, Triticum aestivum)
Assay: Test C preemergence
Type: in vivo
Conditions: 31 g ai/ha, 0 is no effect, 100 is complete control
Here, each record is paired with measured Plant response rating (scale of 0 to 100), Wheat data.
Enter a number only.

{"columns": ["compound", "result value"],
 "data": [
  ["O=C1NCC(c2ccc(I)cc2)C1C(=O)Nc1cccc(F)c1F (racemic) [Compound 700]", 0],
  ["CN1CC(c2cccc(OC(F)F)c2)C(C(=O)Nc2cccc(F)c2F)C1=O (stereo not shown) [Compound 616]", 0],
  ["CN1CC(c2cc(F)cc(F)c2)C(C(=O)Nc2ccc(F)c(F)c2F)C1=O (stereo not shown) [Compound 646]", 35]
]}

Moving on to the next compound.
Plant response rating (scale of 0 to 100), Wheat lookup needed for CN1C[C@H](c2ccc(C(F)(F)F)cc2)[C@@H](C(=O)Nc2cccc(F)c2F)C1=O [Compound 623] , thanks.
40

* * *

Test system: rice (Oryra sativa)
Assay: Test B flooded paddy test
Type: in vivo
Conditions: Oryza sativa, 360 h, Flood, 250 g ai/ha; visually evaluated after 13 to 15 d; read-out: Plant response rating, Rice (0 to 100 scale where 0 is no effect and 100 is complete control)
quantity kind: pest or weed control at 250 g/ha (%)
Provide only the numeric value, understood in %.

Example results:
{"columns": ["compound", "pest or weed control at 250 g/ha (%)"],
 "data": [
  ["Cc1ccc([C@H]2CN(C)C(=O)[C@@H]2C(=O)Nc2cccc(F)n2)cc1", 0],
  ["CN1C[C@H](c2ccc(C(F)(F)F)cc2)[C@@H](C(=O)Nc2ccc(F)nc2F)C1=O", 0],
  ["CO[C@]1(C(=O)Nc2cccc(F)c2F)C(=O)N(C)C[C@@H]1c1ccc(C(F)(F)F)cc1 (racemic)", 0],
  ["CN1C[C@H](c2ccc(C(F)(F)F)cc2)[C@@H](C(=O)Nc2cccc(F)n2)C1=O", 0]
]}

Moving on to the next compound.
pest or weed control at 250 g/ha lookup needed for `CN1C[C@H](c2cc(C(F)(F)F)cs2)[C@@H](C(=O)Nc2cccc(F)c2F)C1=O` , thanks.
15

* * *

Test system: ducksalad (Heteranthera limosa)
Assay: Test B flooded paddy test
Format: in vivo
Conditions: Heteranthera limosa, Flood, 250 g ai/ha; scale of 0 to 100 where 0 is no effect and 100 is complete control; read-out: Ducksalad plant response rating
quantity kind: pest or weed control at 250 g/ha (%)
Provide only the numeric value, understood in %.

{"columns": ["compound", "quantity kind", "scale unit", "result value"],
 "data": [
  ["CC(C)(C)c1ccc([C@H]2CNC(=O)[C@@H]2C(=O)Nc2cccc(F)c2F)cc1", "pest or weed control at 250 g/ha", "%", 90]
]}

Lookup: pest or weed control at 250 g/ha / ducksalad (Heteranthera limosa) / `COc1cc([C@H]2CN(C)C(=O)[C@@H]2C(=O)Nc2ccccc2SC)cc(C(F)(F)F)c1`
80

What about this compound? `O=C1NC[C@H](c2ccc3c(c2)CCCO3)[C@H]1C(=O)Nc1ccccc1F`
60

What about this compound? `CC(=O)Oc1ccc(NC(=O)[C@H]2C(=O)N(C)C[C@@H]2c2cc(F)cc(F)c2)c(F)c1`
70

What about this compound? `COc1cc(C(F)(F)F)ccc1[C@H]1CN(C)C(=O)[C@@H]1C(=O)Nc1ccccc1F`
100

What about this compound? `Cc1ccc(NC(=O)[C@H]2C(=O)N(C)C[C@@H]2c2cc(F)cc(F)c2)c(F)c1F`
100

What about this compound? `Cc1c(F)ccc([C@H]2CN(C)C(=O)[C@@H]2C(=O)Nc2ccccc2F)c1F`
85

What about this compound? `CN1CC[C@H](c2cccc(OC(F)(F)F)c2)[C@@H](C(=O)Nc2ccc(F)c(F)c2F)C1=O`
100

What about this compound? `Cc1cc(C)cc([C@H]2CN(C)C(=O)[C@@H]2C(=O)Nc2ccccc2F)c1`
85

What about this compound? O=C1NCC(c2cccc(I)c2)C1C(=O)Nc1ccccc1F (stereo not shown)
0

* * *

System: morningglory (Ipomoea coccinea)
Test: Test C preemergence
Type: in vivo
Settings: 62 g ai/ha, scale 0 to 100, 0 no effect, 100 complete control
quantity kind: Plant response rating, Morningglory

Example results:
{"columns": ["molecule", "Plant response rating, Morningglory"],
 "data": [
  ["O=C1NCC(c2cccc(OC(F)F)c2)C1C(=O)Nc1ccc(F)cc1F (centres unmarked)", 0],
  ["O=C1NCC(c2ccc3c(c2)OC(F)(F)O3)C1C(=O)Nc1cccc(F)c1F (centres unmarked)", 25],
  ["CN1C[C@H](c2ccc(F)c(F)c2)[C@@H](C(=O)Nc2ccccc2F)C1=O", 0],
  ["O=C1NCC(c2ccc(I)cc2)C1C(=O)Nc1cccc(F)c1F (racemic)", 0]
]}

Moving on to the next molecule.
Lookup: Plant response rating, Morningglory / morningglory (Ipomoea coccinea) / CN1CC(c2cccc(OC(F)(F)C(F)F)c2)C(C(=O)Nc2ccccc2C(F)(F)F)C1=O (centres unmarked)
10

* * *

Test system: Kochia (Kochia scoparia)
Assay: Test A postemergence
Type: in vivo
Conditions: Bassia scoparia, post-emergence, 240 h, 500 g ai/ha, postemergence; 0 to 100 scale, 0 is no effect, 100 is complete control; read-out: Kochia plant response rating
quantity kind: pest or weed control at 500 g/ha (%)
Provide only the numeric value, understood in %.

Lookup: pest or weed control at 500 g/ha / Kochia (Kochia scoparia) / `Cc1c(F)cccc1NC(=O)[C@H]1C(=O)N(C)C[C@@H]1c1ccc(C(F)(F)F)nc1`
80

What about this compound? `Cc1c(F)cccc1NC(=O)[C@H]1C(=O)N(C)C[C@@H]1c1cc(F)cc(F)c1`
40

What about this compound? `CN1CC[C@H](c2cccc(C(F)(F)F)c2)[C@@H](C(=O)Nc2cccc(F)c2Cl)C1=O`
0

What about this compound? CC(C)=CC1CNC(=O)C1C(=O)Nc1ccccc1S(C)(=O)=O (centres unmarked)
0

What about this compound? `Cc1cc([C@H]2CN(C)C(=O)[C@@H]2C(=O)Nc2ccccc2F)on1`
0

What about this compound? `CN1C[C@H](c2cscn2)[C@@H](C(=O)Nc2cccc(F)c2F)C1=O`
0

What about this compound? `Cc1ccccc1NC(=O)[C@H]1C(=O)N(C)C[C@@H]1c1ccc(C(F)(F)F)cc1`
70

What about this compound? `CCc1cc([C@H]2CN(C)C(=O)[C@@H]2C(=O)Nc2cccc(F)c2F)cs1`
50

* * *

System: waterhemp (common waterhemp, Amaranthus rudis)
Assay: Test C preemergence
Assay type: in vivo
Conditions: 62 g ai/ha, scale 0 to 100, 0 no effect, 100 complete control
quantity kind: Plant response rating, Waterhemp
Enter a number only.

Example results:
{"columns": ["compound", "result value"],
 "data": [
  ["O=C1NCC(c2cccc(OC(F)(F)C(F)F)c2)C1C(=O)Nc1cccc(F)c1F (racemic) [Compound 697]", 80],
  ["O=C1NCC(c2cccc(OC(F)F)c2)C1C(=O)Nc1ccc(F)cc1F (centres unmarked) [Compound 421]", 30],
  ["O=C1NCC(c2ccc(I)cc2)C1C(=O)Nc1cccc(F)c1F (racemic) [Compound 700]", 65],
  ["CN1CC(c2ccc(F)c(F)c2)C(C(=O)Nc2ccccc2C(F)(F)F)C1=O (centres unmarked) [Compound 641]", 0]
]}

Moving on to the next compound.
Plant response rating, Waterhemp lookup needed for CN1CC(c2cccc(OC(F)F)c2)C(C(=O)Nc2cccc(F)c2F)C1=O (centres unmarked) [Compound 616] , thanks.
80

* * *

Test system: corn (Zea mays)
Assay: Test A postemergence
Type: in vivo
Details: 125 g ai/ha, postemergence; visual rating after approx. 10 d, 0 to 100 scale (0 no effect, 100 complete control)
quantity kind: Plant response rating, Corn
Enter a number only.

Example results:
{"columns": ["compound", "quantity kind", "result value"],
 "data": [
  ["CN1CC(c2cccc(C(F)(F)F)c2)C(C(=O)Nc2ccccc2[N+](=O)[O-])C1=O (centres unmarked) [Compound 572]", "Plant response rating, Corn", 60],
  ["O=C1NCC(c2cc(F)ccc2F)C1C(=O)Nc1cccc(F)c1F (racemic) [Compound 546]", "Plant response rating, Corn", 0]
]}

Plant response rating, Corn lookup needed for CN1CC(c2ccc(F)c(C(F)(F)F)c2)C(C(=O)Nc2ccccc2F)C1=O (centres unmarked) [Compound 611] , thanks.
50

What about this compound? CN1CC(c2cc(F)cc(F)c2)C(C(=O)Nc2ccccc2F)C1=O (centres unmarked) [Compound 643]
0

What about this compound? O=C1NCC(c2ccc3c(c2)OC(F)(F)O3)C1C(=O)Nc1cccc(F)c1F (centres unmarked) [Compound 635]
40

What about this compound? C=CCOc1cccc(C2CNC(=O)C2(CC=C)C(=O)Nc2cccc(F)c2F)c1 (centres unmarked) [Compound 631]
0

What about this compound? O=C1NCC(c2cc(F)ccc2F)C1C(=O)Nc1ccc(F)cc1F (racemic) [Compound 545]
0

What about this compound? O=C1NCC(c2ccc(F)cc2F)C1C(=O)Nc1ccccc1F (centres unmarked) [Compound 620]
0

What about this compound? CN1CC(c2cccc(OC(F)F)c2)C(C(=O)Nc2cccc(F)c2F)C1=O (centres unmarked) [Compound 616]
70

What about this compound? O=C1NCC(c2cc(C(F)(F)F)cc(C(F)(F)F)c2)C1C(=O)Nc1ccc(F)cc1F (centres unmarked) [Compound 589]
10

What about this compound? O=C1NCC(c2cccc(C(F)(F)F)c2F)C1C(=O)Nc1ccccc1F (centres unmarked) [Compound 590]
50

What about this compound? Cc1cccc(C2CN(C)C(=O)C2C(=O)Nc2ccccc2S(C)(=O)=O)c1 (centres unmarked) [Compound 668]
20

What about this compound? CN1CC(c2cc(F)cc(F)c2)C(C(=O)Nc2cccc3c2CCCC3)C1=O (centres unmarked) [Compound 660]
0

What about this compound? Cc1cc(C2CNC(=O)C2C(=O)Nc2cccc(F)c2F)cs1 (racemic) [Compound 656]
0

What about this compound? CN1CC(c2ccc(F)c(F)c2)C(C(=O)Nc2ccccc2C(F)(F)F)C1=O (centres unmarked) [Compound 641]
0

What about this compound? CN1CC(c2cc(F)cc(F)c2)C(C(=O)Nc2ccc(F)c(F)c2F)C1=O (centres unmarked) [Compound 646]
70

What about this compound? CCc1cc(C2CNC(=O)C2C(=O)Nc2cccc(F)c2F)cs1 (racemic) [Compound 658]
0
